# Test system: Staphylococcus aureus cultures
# Protocol Details: Broth dilution MIC in trypticase soy broth, low and high NaCl (Example 10)
# Format: cell-based
# Condition Context: Staphylococcus aureus, culture 3132 (first column so headed); TSB, table part marked b; read-out: MIC
Measured Attribute: MIC (µg/mL)
Provide the reading as a plain figure in µg/mL.

Query: Fill blank: measured MIC of the molecule COc1cccc(OC)c1C(=O)N[C@@H]1C(=O)N2[C@@H]1SC(C)(C)[C@@H]2C(=O)O is ____.
Result: 32

Query: Fill blank: measured MIC of the molecule O=C(Cc1cccs1)N[C@@H]1C(=O)N2C(C(=O)[O-])=C(C[n+]3ccccc3)CS[C@H]12 [Cephaloridine, cephaloridine, reference compound] is ____.
Result: 2

====

I'd appreciate it if you could supply MIC values for the items below.
# Tested on: Staphylococcus aureus cultures
# Protocol Details: Broth dilution MIC in trypticase soy broth, low and high NaCl (Example 10)
# Type: cell-based
# Condition Context: Staphylococcus aureus, culture 3134; TSB, table part marked c; read-out: MIC
Provide the reading as a plain figure in µg/mL.

Query: Fill blank: measured MIC of the compound CC(=O)OCC1=C(C(=O)O)N2C(=O)C(NC(=O)CSc3ccc(Cl)c(Cl)c3)C2SC1 (stereo not shown) is ____.
Result: 4

Query: Fill blank: measured MIC of the compound COc1cccc(OC)c1C(=O)N[C@@H]1C(=O)N2[C@@H]1SC(C)(C)[C@@H]2C(=O)O is ____.
Result: 64

Query: Fill blank: measured MIC of the compound CC(=O)OCC1=C(C(=O)O)N2C(=O)C(NC(=O)CSc3cc(Cl)ccc3Cl)C2SC1 (stereo not shown) is ____.
Result: 4

Query: Fill blank: measured MIC of the compound CC(=O)OCC1=C(C(=O)O)N2C(=O)C(NC(=O)CSc3cc(Cl)cc(Cl)c3)C2SC1 (stereo not shown) is ____.
Result: 2

====

I'd appreciate it if you could supply MIC values for the items below.
# Test system: Staphylococcus aureus cultures
# Protocol Details: Broth dilution MIC in trypticase soy broth, low and high NaCl (Example 10)
# Type: cell-based
# Condition Context: Staphylococcus aureus, culture 3136; TSB, table part marked b; read-out: MIC
Provide the reading as a plain figure in µg/mL.

Query: Give the reported MIC for CC(=O)OCC1=C(C(=O)O)N2C(=O)C(NC(=O)CSc3cc(Cl)ccc3Cl)C2SC1 (centres unmarked) (system: Staphylococcus aureus cultures).
Result: 0.25

Query: Give the reported MIC for CC(=O)OCC1=C(C(=O)O)N2C(=O)C(NC(=O)CSc3cc(Cl)cc(Cl)c3)C2SC1 (centres unmarked) (system: Staphylococcus aureus cultures).
Result: 0.5

Query: Give the reported MIC for COc1cccc(OC)c1C(=O)N[C@@H]1C(=O)N2[C@@H]1SC(C)(C)[C@@H]2C(=O)O (system: Staphylococcus aureus cultures).
Result: 32

Query: Give the reported MIC for CC(=O)OCC1=C(C(=O)O)N2C(=O)C(NC(=O)CSc3ccc(Cl)c(Cl)c3)C2SC1 (centres unmarked) (system: Staphylococcus aureus cultures).
Result: 0.5

====

# Test system: Staphylococcus aureus cultures
# Protocol Details: Agar dilution susceptibility test, phenylthioacetyl cephalosporins vs methicillin resistant S. aureus (Example 9)
# Format: cell-based
# Condition Context: Staphylococcus aureus, culture H232 (control, benzylpenicillin-resistant); table part marked b; read-out: MIC
I'd appreciate it if you could supply MIC values for the items below.

Query: Fill blank: measured MIC of the molecule CC(=O)OCC1=C(C(=O)O)N2C(=O)C(NC(=O)CSc3ccc(Cl)c(Cl)c3)C2SC1 (centres unmarked) is ____.
Result: < 0.06 µg/mL

Query: Fill blank: measured MIC of the molecule CC(=O)OCC1=C(C(=O)O)N2C(=O)C(NC(=O)CSc3cc(Cl)cc(Cl)c3)C2SC1 (centres unmarked) is ____.
Result: < 0.06 µg/mL

Query: Fill blank: measured MIC of the molecule O=C(Cc1cccs1)N[C@@H]1C(=O)N2C(C(=O)[O-])=C(C[n+]3ccccc3)CS[C@H]12 [Cephaloridine, cephaloridine, reference compound] is ____.
Result: < 0.06 µg/mL

Query: Fill blank: measured MIC of the molecule CC(=O)OCC1=C(C(=O)O)N2C(=O)C(NC(=O)CSc3cc(Cl)ccc3Cl)C2SC1 (centres unmarked) is ____.
Result: < 0.06 µg/mL

Query: Fill blank: measured MIC of the molecule COc1cccc(OC)c1C(=O)N[C@@H]1C(=O)N2[C@@H]1SC(C)(C)[C@@H]2C(=O)O is ____.
Result: 2 µg/mL
